# ASSAY_NOTES: AUC (0 to t) in BALB/c nude mouse at 1 mg/kg, iv by LC-MS/MS analysis
# Assay type: ADME, organism-based
# Design: dose 1 mg/kg, route iv
# ASSAY_CONDITIONS: in vivo
RECORDED_METRIC: AUC(0-t)

**Q:** Param item = CCN(CC)C(=O)C[C@H]1C(=O)Nc2cc(NC(=O)c3cc(OC)c(OC)c(OC)c3Br)c(Oc3cc(C)cc(C)c3)cc2C(=O)N1C ; retrieve measured AUC(0-t).
**A:** 439 ng·h/mL

----------
# Tested on: MCF7
# ASSAY_NOTES: Anticancer activity against human MCF7 cells assessed as cell growth inhibition
RECORDED_METRIC: pIC50
Please report pIC50 as the negative decimal logarithm of the molar concentration, giving only the number.

**Q:** Lab note: need pIC50 with MCF7 for entry C[C@H](c1ccc(Cl)cc1)N1C(=O)c2cc(I)ccc2N(CCCCC(=O)O)C(=O)[C@@H]1c1ccc(Cl)cc1 , please look it up.
**A:** 5.15
